- system: HDAC6 (Homo sapiens)
- Construct: Full length human recombinant HDAC6 protein were expressed in baculoviral system
- Sequence (Q9UBN7 1-1215): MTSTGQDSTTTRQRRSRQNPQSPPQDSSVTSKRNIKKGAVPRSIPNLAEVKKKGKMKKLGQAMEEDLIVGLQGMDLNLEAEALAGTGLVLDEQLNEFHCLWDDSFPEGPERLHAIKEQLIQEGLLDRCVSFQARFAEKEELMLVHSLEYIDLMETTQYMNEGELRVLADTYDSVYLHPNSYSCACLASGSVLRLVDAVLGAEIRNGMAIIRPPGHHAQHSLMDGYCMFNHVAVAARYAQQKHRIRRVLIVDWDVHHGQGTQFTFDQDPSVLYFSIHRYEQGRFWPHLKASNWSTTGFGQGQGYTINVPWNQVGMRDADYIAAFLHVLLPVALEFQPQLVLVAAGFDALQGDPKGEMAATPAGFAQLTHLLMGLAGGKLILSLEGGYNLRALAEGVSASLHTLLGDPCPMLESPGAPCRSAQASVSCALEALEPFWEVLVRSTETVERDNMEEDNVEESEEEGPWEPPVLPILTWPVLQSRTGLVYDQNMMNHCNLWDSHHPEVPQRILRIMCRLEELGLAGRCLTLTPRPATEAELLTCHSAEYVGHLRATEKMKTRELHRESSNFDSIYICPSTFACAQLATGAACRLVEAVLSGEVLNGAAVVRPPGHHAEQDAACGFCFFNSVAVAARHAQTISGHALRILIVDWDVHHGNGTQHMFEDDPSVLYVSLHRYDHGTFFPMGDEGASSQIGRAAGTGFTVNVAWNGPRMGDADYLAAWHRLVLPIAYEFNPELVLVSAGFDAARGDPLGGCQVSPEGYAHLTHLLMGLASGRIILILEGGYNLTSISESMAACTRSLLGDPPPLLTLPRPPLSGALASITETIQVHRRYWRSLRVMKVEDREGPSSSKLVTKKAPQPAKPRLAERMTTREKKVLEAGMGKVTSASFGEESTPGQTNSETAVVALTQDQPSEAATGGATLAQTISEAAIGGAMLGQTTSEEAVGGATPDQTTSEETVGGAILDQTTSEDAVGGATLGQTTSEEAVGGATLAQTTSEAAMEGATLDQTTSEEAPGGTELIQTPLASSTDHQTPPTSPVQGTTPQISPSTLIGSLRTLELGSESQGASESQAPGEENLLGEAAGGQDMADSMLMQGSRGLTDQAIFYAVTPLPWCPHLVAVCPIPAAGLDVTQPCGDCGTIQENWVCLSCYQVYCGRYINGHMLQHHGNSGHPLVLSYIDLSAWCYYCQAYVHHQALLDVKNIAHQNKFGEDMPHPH
- assayExplanation: In vitro histone deacetylase assay: enzymatic HDAC6 electrophoretic mobility shift assay
- runConditions: full length human recombinant HDAC6, 1 nM enzyme, 2 μM peptide substrate RHKK(Ac)-NH2, 25° C.; read-out: Inhibitory Concentration (IC50) against HDAC6, Activity Range
The following compounds are shown together with reported IC50 values.

{"structureAsSmiles": "O=C(NO)c1ccc2c(c1)OCCCNC2", "IC50": "> 500 nM"}
{"structureAsSmiles": "CC1(C(=O)N2CCCOc3cc(C(=O)NO)ccc3C2)CCOCC1", "IC50": "≤ 100 nM"}
{"structureAsSmiles": "O=C(NO)c1ccc2c(c1)OCCCN(C(=O)C1CCOCC1)C2", "IC50": "100 to 500 nM"}

Data provenance is patent US12304904B2.
